These entries and their values trace back to the supplement of paper PMC8183993.

- System: U2OS
- protocolText: nuclei count (viability) relative to DMSO (% of DMSO); higher = more viable cells
- settings: 10 µM; 24 h
Where a name gives a salt, the structure may show the parent alone. In all, about 3,200 compounds were measured (“nuclei count (viability) relative to DMSO”: median about 99, lowest 2% from about 16 on). This is one part of a sample in which the lowest values are shown more often than they occur.
observable: nuclei count

Examples with answers:
compound	testTarget	observable	observed
Cc1onc(O)c1C[C@H](N)C(=O)O	U2OS	nuclei count	102
CCN1C[C@]2(COC(=O)c3ccccc3N3C(=O)C[C@H](C)C3=O)CC[C@H](OC)[C@@]34[C@@H]5C[C@H]6[C@H](OC)[C@@H]5[C@](O)(C[C@@H]6OC)[C@](O)([C@@H](OC)[C@H]23)[C@@H]14 [Methyllycaconitine citrate]	U2OS	nuclei count	109

Note: attention shifts to another entry.
## Task Given `COc1cc([C@@H]2c3cc4c(cc3[C@H](O)[C@H]3COC(=O)[C@H]23)OCO4)cc(OC)c1OC` , state its recorded nuclei count.
## Result 15.6
